Values compiled from patent US7015228B2.

# Test system: S. aureus ATCC 6538
# Test description: Determination of the bactericidal activity (logarithmic reduction in organism count)
# Format: cell-based, Staphylococcus aureus
# Condition details: contact for 30 minutes at a substance concentration of 120 μg/mL
What Logarithmic reduction in organism count, S. aureus ATCC 6538 was measured for each of the following?

Quick one: Logarithmic reduction in organism count, S. aureus ATCC 6538 of CCCCCCCCNc1cc(C(C)C)nc(-c2ccccn2)n1 ?
1–2 log

Quick one: Logarithmic reduction in organism count, S. aureus ATCC 6538 of CCCCCCCCCNc1cc(C(F)(F)F)nc(-c2ccccn2)n1 ?
<1 log

Quick one: Logarithmic reduction in organism count, S. aureus ATCC 6538 of COCCc1cc(NCCCCCCCCCN)nc(-c2ccccn2)n1 ?
>3 log
